Tested on: Ipomoea hederacea (IPOHE)
procedureSummary: Post-emergence efficacy, glasshouse, evaluated after 13 days
Type: in vivo
condition: Ipomoea hederacea, 312 h; post-emergence application, 500 g/Ha, evaluated after 13 days; read-out: Control of weed species IPOHE (100=total damage to plant; 0=no damage to plant)
The threshold is 40%. Values of pest or weed control at 500 g/ha beneath it are tagged 1; values meeting or exceeding it are tagged 0.

{"columns": ["compound", "groupLabel"],
 "data": [
  ["O=C(Nc1ccccc1O)c1cc[n+](CCS(=O)(=O)[O-])nc1 [Compound A84]", 1],
  ["O=C(O)CC[n+]1ccc(C(=O)N2CCS(=O)(=O)CC2)cn1 [Compound A108]", 0],
  ["CCNC(=O)c1cc[n+](CCCS(=O)(=O)[O-])nc1 [Compound A76]", 1],
  ["O=C(O)CC[n+]1ccc(C(=O)NCCc2ncccn2)cn1 [Compound A145]", 1],
  ["O=C(c1cc[n+](CCS(=O)(=O)[O-])nc1)N1CCCCC1 [Compound A27]", 1],
  ["COCCNC(=O)c1cc[n+](CCS(=O)(=O)[O-])nc1 [Compound A52]", 0],
  ["O=C(NC1CC1)c1cc[n+](CCCOS(=O)(=O)[O-])nc1 [Compound A126]", 0],
  ["C#CCCNC(=O)c1cc[n+](CCC(=O)O)nc1 [Compound A114]", 0]
]}

###

System: Setaria faberi (SETFA)
procedureSummary: Post-emergence efficacy, glasshouse, evaluated after 13 days
Format: in vivo
condition: Setaria faberi, 312 h; post-emergence application, 500 g/Ha, evaluated after 13 days; read-out: Control of weed species SETFA (100=total damage to plant; 0=no damage to plant)
assayEndpoint: pest or weed control at 500 g/ha

{"columns": ["compound", "testSystem", "assayEndpoint", "reportedResult"],
 "data": [
  ["O=C(O)CC[n+]1ccc(C(=O)NCC(F)(F)C(F)(F)F)cn1", "Setaria faberi (SETFA)", "pest or weed control at 500 g/ha", "90%"],
  ["O=C(O)CC[n+]1ccc(C(=O)NC2CC2)cn1", "Setaria faberi (SETFA)", "pest or weed control at 500 g/ha", "100%"],
  ["N#CCNC(=O)c1cc[n+](CCC(=O)O)nc1", "Setaria faberi (SETFA)", "pest or weed control at 500 g/ha", "100%"],
  ["O=C(O)CC[n+]1ccc(C(=O)NCC(F)(F)F)cn1", "Setaria faberi (SETFA)", "pest or weed control at 500 g/ha", "90%"],
  ["C=CCNC(=O)c1cc[n+](CCCOS(=O)(=O)[O-])nc1", "Setaria faberi (SETFA)", "pest or weed control at 500 g/ha", "50%"],
  ["CCNC(=O)c1cc[n+](CCS(=O)(=O)[O-])nc1", "Setaria faberi (SETFA)", "pest or weed control at 500 g/ha", "90%"],
  ["C#CCCNC(=O)c1cc[n+](CCC(=O)O)nc1", "Setaria faberi (SETFA)", "pest or weed control at 500 g/ha", "100%"],
  ["COCCNC(=O)c1cc[n+](CCNS(=O)(=O)[O-])nc1", "Setaria faberi (SETFA)", "pest or weed control at 500 g/ha", "70%"],
  ["CC1CC1NC(=O)c1cc[n+](CCC(=O)O)nc1 (stereo not drawn)", "Setaria faberi (SETFA)", "pest or weed control at 500 g/ha", "90%"]
]}
